# Test System: Growth hormone secretagogue receptor type 1 (Homo sapiens, UniProt Q92847)
# Sequence (Q92847 whole entry): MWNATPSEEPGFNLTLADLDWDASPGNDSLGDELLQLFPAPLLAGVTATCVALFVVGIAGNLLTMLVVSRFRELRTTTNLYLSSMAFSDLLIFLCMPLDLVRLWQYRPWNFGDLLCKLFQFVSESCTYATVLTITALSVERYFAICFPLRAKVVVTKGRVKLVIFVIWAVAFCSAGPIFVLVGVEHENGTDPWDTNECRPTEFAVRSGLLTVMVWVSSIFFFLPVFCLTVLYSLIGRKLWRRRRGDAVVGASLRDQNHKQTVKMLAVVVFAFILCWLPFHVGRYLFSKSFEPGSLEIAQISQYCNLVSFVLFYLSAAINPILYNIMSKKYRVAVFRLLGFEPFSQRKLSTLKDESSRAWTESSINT
# Measurement Notes: Antagonist activity at human GHS-R1a transfected in mouse LTK cells after 6 hrs by CRE/luciferase reporter gene assay in presence of ghrelin and rolipram
# Format: functional, cell-based
Assignment: determine reported IC50 for the given compounds.

Q: Which IC50 is listed for COc1ccc(Cn2c([C@@H](N)Cc3ccccc3)nnc2[C@@H](Cc2c[nH]c3ccccc23)NC(=O)c2ccccn2)cc1 ?
Result: 320 nM

Q: Entry COc1ccc(Cn2c([C@H](Cc3ccccc3)NC(C)=O)nnc2[C@@H](Cc2c[nH]c3ccccc23)NC(=O)C(C)(C)N)cc1 has what IC50?
Result: > 1000 nM

Q: Can you look up the measured IC50 of COc1ccc(Cn2c([C@@H](N)Cc3ccccc3)nnc2[C@@H](Cc2c[nH]c3ccccc23)NC(=O)C(C)(C)N)cc1 for me?
Result: > 1000 nM

Q: Recorded IC50 for COc1ccc(Cn2c([C@H](Cc3c[nH]c4ccccc34)NC(C)=O)nnc2[C@@H](Cc2c[nH]c3ccccc23)NC(=O)c2ccccn2)cc1 , please?
Result: 100 nM

Q: For the compound COc1ccc(Cn2c([C@@H](Cc3ccccc3)NC(C)=O)nnc2[C@@H](Cc2c[nH]c3ccccc23)NC(=O)[C@@H]2CNCCO2)cc1 , what IC50 is on record?
Result: 9 nM

Q: Please report the recorded IC50 for COc1ccc(Cn2c([C@H](Cc3c[nH]c4ccccc34)NC(C)=O)nnc2[C@@H](Cc2c[nH]c3ccccc23)NC(=O)C(C)(C)N)cc1 .
Result: > 1000 nM

Q: Could you share which IC50 value was measured for COc1ccc(Cn2c([C@@H](Cc3ccccc3)NC(C)=O)nnc2[C@@H](Cc2c[nH]c3ccccc23)NC(=O)c2ncccc2F)cc1 ?
Result: 2 nM

Q: Fill in the blank: the reported IC50 of COc1ccc(Cn2c([C@@H](Cc3c[nH]c4ccccc34)NC(C)=O)nnc2[C@@H](Cc2c[nH]c3ccccc23)NC(=O)c2ccccn2)cc1 is ____.
Result: 2 nM

Q: # IC50 lookup, item COc1ccc(Cn2c([C@H](N)Cc3ccccc3)nnc2[C@@H](Cc2c[nH]c3ccccc23)NC(=O)c2ccccn2)cc1
Result: 7 nM

Q: Form field: reported IC50 of COc1ccc(Cn2c([C@@H](N)Cc3c[nH]c4ccccc34)nnc2[C@@H](Cc2c[nH]c3ccccc23)NC(=O)C(C)(C)N)cc1
Result: > 1000 nM

Q: Look up IC50: COc1ccc(Cn2c([C@@H](Cc3ccccc3)NC(C)=O)nnc2[C@@H](Cc2c[nH]c3ccccc23)NC(=O)CO)cc1
Result: 8 nM

###

# Test System: Growth hormone secretagogue receptor type 1 (Homo sapiens)
# Measurement Notes: Competitive binding affinity to human SNAP-tagged GHS-R1a expressed in HEK293T cells incubated at 4 degC for 3 hrs or at room temperature for 1 hr by Tag-lite assay
# Format: cell-based, HEK-293T
Task for the reader: assign each of the following molecules its reported pKi.
Quick note: pKi values are minus log10 of concentrations in mol/L.

Q: Suppose we examine the molecule COc1ccc(Cn2c([C@@H](Cc3c[nH]c4ccccc34)NC(=O)[C@H](CC(C)C)NC(=O)[C@H](CC(C)C)NC(C)=O)nnc2[C@@H](Cc2c[nH]c3ccccc23)NC(=O)C(C)(C)N)cc1 ; what pKi value has been reported?
Result: 7.52

Q: # input molecule: COc1ccc(Cn2c([C@@H](Cc3c[nH]c4ccccc34)NC=O)nnc2[C@@H](Cc2c[nH]c3ccccc23)NC(=O)[C@@H](N)CCCCN)cc1 ; wanted: its pKi
Result: 8.10

Q: Item COC(=O)[C@H](CC(C)C)NC(=O)C(CC(C)C)C(=O)N[C@H](Cc1c[nH]c2ccccc12)c1nnc([C@@H](Cc2c[nH]c3ccccc23)NC(=O)[C@@H](N)CCCCN)n1Cc1ccc(OC)cc1 (stereo partly specified) has what recorded pKi?
Result: 6.66

Q: May I ask what pKi has been recorded for COc1ccc(Cn2c([C@@H](Cc3c[nH]c4ccccc34)NC(=O)C(CC(C)C)C(=O)N[C@@H](CC(C)C)C(N)=O)nnc2[C@@H](Cc2c[nH]c3ccccc23)NC(=O)[C@@H](N)CCCCN)cc1 (mixture of isomers) ?
Result: 6.68

Q: Please give the measured pKi for this molecule: COc1ccc(Cn2c([C@@H](Cc3c[nH]c4ccccc34)NC(=O)[C@H](CC(C)C)NC(=O)[C@H](CC(C)C)NC(C)=O)nnc2[C@@H](Cc2c[nH]c3ccccc23)NC(=O)[C@@H](N)CCCCN)cc1
Result: 6.96

Q: Data request, read-out pKi, for COc1ccc(Cn2c([C@H](Cc3c[nH]c4ccccc34)NC(=O)[C@H]3CNCCO3)nnc2[C@@H](Cc2c[nH]c3ccccc23)NC(=O)[C@@H](CC(C)C)NC(=O)[C@@H](CC(C)C)NC(C)=O)cc1 (stereo in doubt)
Result: 7.30
